Molecular target: T1, human IL-10 receptor (hIL-10R alpha and beta chains) on HEK-Blue IL-10 reporter cells (human, UniProt Q13651 22-578; Q08334 20-325)
T1 sequence 1: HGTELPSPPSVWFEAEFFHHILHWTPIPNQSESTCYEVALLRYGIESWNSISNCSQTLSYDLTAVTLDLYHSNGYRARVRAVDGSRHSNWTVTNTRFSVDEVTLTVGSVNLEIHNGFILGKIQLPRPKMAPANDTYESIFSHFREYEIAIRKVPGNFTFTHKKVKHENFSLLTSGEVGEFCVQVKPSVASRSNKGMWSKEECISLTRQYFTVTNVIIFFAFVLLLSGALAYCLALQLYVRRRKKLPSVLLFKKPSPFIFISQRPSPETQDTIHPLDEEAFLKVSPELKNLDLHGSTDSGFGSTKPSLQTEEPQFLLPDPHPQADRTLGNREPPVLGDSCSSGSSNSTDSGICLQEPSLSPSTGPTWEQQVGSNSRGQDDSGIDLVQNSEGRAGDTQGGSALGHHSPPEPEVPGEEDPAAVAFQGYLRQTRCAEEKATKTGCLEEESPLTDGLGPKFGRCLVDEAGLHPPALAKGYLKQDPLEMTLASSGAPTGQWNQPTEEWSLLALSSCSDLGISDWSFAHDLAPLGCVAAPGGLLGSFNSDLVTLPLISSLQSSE
T1 sequence 2: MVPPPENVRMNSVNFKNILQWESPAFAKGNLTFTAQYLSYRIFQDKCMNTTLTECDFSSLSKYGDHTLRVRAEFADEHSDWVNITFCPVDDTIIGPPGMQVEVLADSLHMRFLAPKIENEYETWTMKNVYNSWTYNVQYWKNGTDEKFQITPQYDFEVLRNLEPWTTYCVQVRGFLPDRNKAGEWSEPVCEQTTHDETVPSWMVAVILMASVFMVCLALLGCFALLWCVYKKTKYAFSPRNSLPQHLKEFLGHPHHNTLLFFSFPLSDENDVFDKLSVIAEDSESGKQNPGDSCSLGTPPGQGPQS
Assay: cell-based or functional assay
measurement name: Abs 630 (100 nM) (Abs 630)
I only need the number, in Abs 630, no unit after it.

Some binders with recorded Abs 630 (100 nM):
{"binder": "IL10R binding molecule of SEQ ID NO: 264 (bispecific antibody) QVQLQESGGGSVQAGGSLRLSCAASRFTYSSYCMGWFRQAPGKEREGVASIDSDGSTSYTDSVKGRFTISKDNAKNTLYLQMNSLKPEDTAMYYCALDLMSTVVPGFCGFLLSAGMDYWGKGTQVTVSSGGGSQVQLQESGGGSVQAGGSLRLSCAASGYTYSSYCMGWFRQAPGKEREGVAHIDSDGSTSYADSVKGRFTISKDNAKNTLYLQMNSLKPEDTAMYYCAADPIPGPGYCDGGPNKYWGQGTQVTVSSASHHHHHH", "Abs 630 (100 nM), Abs 630": 0.67}
{"binder": "IL10R binding molecule of SEQ ID NO: 351 (bispecific antibody) QVQLQESGGGSVQTGGSLRLSCAASGYTYLRGCMGWFRQAPGKEREGVAVMDVVGDRRSYIDSVKGRFTISRDNAANSVYLQMDNLKPEDTAMYYCTAGPNCVGWRSGLDYWGQGTQVTVSSGGGSQVQLQESGGGSVQAGGSLRLSCTVSGYTYSSNCMGWFRQAPGKEREGVATIYTGGGNTYYADSVKGRFTISQDNAKNTVYLQMNNLKPEDTAMYYCAAEPLSRVYGGSCPTPTFDYWGQGTQVTVSSASHHHHHH", "Abs 630 (100 nM), Abs 630": 0.34}

# input for lookup
Respond only with Abs 630 (100 nM) recorded for IL10R binding molecule of SEQ ID NO: 314 (bispecific antibody) QVQLQESGGGSVQAGGSLRLSCAASGYTYSSYCMGWFRQAPGKEREGVAHIDSDGSTSYADSVKGRFTISKDNAKNTLYLQMNSLKPEDTAMYYCAADPIPGPGYCDGGPNKYWGQGTQVTVSSGGGSQVQLQESGGGSVQAGGSLRLSCAASGYTYSMYCMGWFRQAPGKEREGVAQINSDGSTSYADSVKGRFTISKDNAKNTLYLQMNSLKPEDTAMYYCAADSRVYGGSWYERLCGPYTYEYNYWGQGTQVTVSSASHHHHHH
0.42
